# target.or.system: hCB1 receptor (Homo sapiens)
# Sequence (P21554 whole entry): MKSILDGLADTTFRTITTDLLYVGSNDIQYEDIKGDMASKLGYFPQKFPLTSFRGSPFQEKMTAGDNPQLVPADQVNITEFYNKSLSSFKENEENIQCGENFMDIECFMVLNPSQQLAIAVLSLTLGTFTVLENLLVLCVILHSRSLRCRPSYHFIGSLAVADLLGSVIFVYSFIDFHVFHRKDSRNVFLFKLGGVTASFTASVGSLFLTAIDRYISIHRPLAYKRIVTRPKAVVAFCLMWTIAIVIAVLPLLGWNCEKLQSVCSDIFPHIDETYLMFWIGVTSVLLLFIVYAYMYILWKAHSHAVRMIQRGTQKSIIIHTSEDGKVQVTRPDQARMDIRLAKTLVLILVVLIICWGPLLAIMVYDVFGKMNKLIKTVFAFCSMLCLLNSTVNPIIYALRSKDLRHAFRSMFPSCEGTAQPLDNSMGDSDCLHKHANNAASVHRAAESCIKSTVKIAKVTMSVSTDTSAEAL
# assay.summary: [3H]CP55,940 competition binding at hCB1 in HEK293 cell membranes
# run.conditions: CB1 Ki, [3H]CP55,940 displacement, value in parenthesis
pKi: −log10 of the molar value.
Classify as follows. Reported pKi greater than or equal to 8: Criterion met. Reported pKi below: Criterion not met.

Could you please find out whether COC(=O)[C@@H](NC(=O)c1cn(CCCCCF)c2ccccc12)C(C)(C)C [5F-MDMB-PICA] has pKi that meets 8 or exceeds it?
Criterion met

Entry C=CCCCn1nc(C(=O)NC(C(=O)OC)C(C)(C)C)c2ccccc21 (centres unmarked) [MDMB-4en-PINACA] : is its pKi no less than 8?
Criterion met

Tell me whether pKi is at least 8 here: CCCCn1nc(C(=O)N[C@@H](Cc2ccccc2)C(N)=O)c2ccccc21 [APP-BINACA]
Criterion not met

Quick check: does CC1(C)C(C(=O)c2cn(Cc3ccc(F)cc3)c3ccccc23)C1(C)C [FUB-144] have pKi greater than or equal to 8?
Criterion not met

API: above_or_equal(metric=pKi, cutoff=8) for item C=CCCCn1cc(C(=O)NC(C(=O)OC)C(C)C)c2ccccc21 (centres unmarked) [MMB-4en-PICA]
Criterion not met

Could you verify whether the entry CCOC(=O)C(NC(=O)c1nn(CCCCCF)c2ccccc12)C(C)(C)C (centres unmarked) [5F-EDMB-PINACA] shows pKi of no less than 8?
Criterion met

* * *

For each record, write down the corresponding pEC50.
# target.or.system: hCB2 receptor (Homo sapiens)
# assay.summary: Agonist-stimulated [35S]GTPγS binding, hCB2 HEK293 membranes
# run.conditions: [35S]GTPγS Turnover CB2 EC50, value in parenthesis
// pEC50: -log10(molar conc.)

Specify pEC50 for COC(=O)C(NC(=O)c1cn(Cc2ccc(F)cc2)c2ccccc12)C(C)C (centres unmarked) and stop.
7.66

Fill in pEC50 for record CC1(C)C(C(=O)c2cn(Cc3ccc(F)cc3)c3ccccc23)C1(C)C
8.34

Recall and state the measured pEC50 for CCOC(=O)C(NC(=O)c1nn(CCCCCF)c2ccccc12)C(C)(C)C (centres unmarked) .
9.35

Answer with the recorded pEC50 for the compound listed here: COC(=O)[C@@H](NC(=O)c1cn(CCCCCF)c2ccccc12)C(C)(C)C
8.78

Supply recorded pEC50 for CCCCn1nc(C(=O)N[C@@H](Cc2ccccc2)C(N)=O)c2ccccc21 here.
8.65

Using the record for C=CCCCn1cc(C(=O)NC(C(=O)OC)C(C)C)c2ccccc21 (centres unmarked) , state its measured pEC50.
7.91

State its pEC50 for this compound: C=CCCCn1nc(C(=O)NC(C(=O)OC)C(C)(C)C)c2ccccc21 (centres unmarked)
8.87

Output pEC50 of COC(=O)[C@@H](NC(=O)c1cn(CCCCCF)c2ccccc12)C(C)C
8.09

* * *

# target.or.system: hCB2 receptor (Homo sapiens, UniProt P34972)
# Sequence (P34972 whole entry): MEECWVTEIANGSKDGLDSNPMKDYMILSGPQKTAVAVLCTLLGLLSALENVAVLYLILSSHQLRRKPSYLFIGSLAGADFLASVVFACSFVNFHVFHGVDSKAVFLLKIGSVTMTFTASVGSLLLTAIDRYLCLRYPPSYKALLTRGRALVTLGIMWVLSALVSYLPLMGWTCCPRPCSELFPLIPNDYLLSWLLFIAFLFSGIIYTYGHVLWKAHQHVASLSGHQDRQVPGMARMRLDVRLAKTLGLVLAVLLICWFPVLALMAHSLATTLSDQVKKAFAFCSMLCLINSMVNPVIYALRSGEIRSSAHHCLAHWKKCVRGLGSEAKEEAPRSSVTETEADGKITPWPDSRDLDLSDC
# assay.summary: Agonist-stimulated [35S]GTPγS binding, hCB2 HEK293 membranes
# run.conditions: read-out: [35S]GTPγS Turnover CB2 EC50; value in parenthesis
quantity.name: pEC50
Keep it numeric: pEC50 is minus log10 of the concentration in mol/L.

Please look at O=C(NC12CC3CC(CC(C3)C1)C2)c1nn(Cc2ccc(F)cc2)c2ccccc12 and tell me its recorded pEC50 on hCB2 receptor (Homo sapiens, UniProt P34972).
9.37
